Please provide measured TGI for the entries that follow.
- System: HCT-15 colon
- Measurement Notes: NCI tumour cell line growth inhibition, 48 h

Input N=C(N)SCCC(=O)CCSC(=N)N . Output TGI: > 100 µM

Lab note: measured TGI of C=C/C(C)=C/C[C@]1(C)[C@H](C)[C@@H](OC(=O)CCC)[C@H](O)[C@@]23C(=C[C@H](OC)C[C@@H]12)[C@@H](OC(=O)CCC)O[C@H]3OC(C)=O was 1.29 µM

Looking up O=C(N/C(=C\c1ccc(Br)cc1)c1nc2ccccc2[nH]1)c1ccccc1 , I see its TGI listed as 39.4 µM

Record C=C(C)C1CC/C(C)=C/CC[C@]2(C)O[C@@H]2CCC2=CC1OC2=O (stereo partly specified) . Reported TGI: > 100 µM

TGI reported for this compound COC(=O)C(=O)C(C(=O)C(=O)Nc1cccc([N+](=O)[O-])c1)c1nc2ccc(Cl)cc2[nH]c1=O (stereo unspecified) : > 100 µM

TGI in this record for CNc1ccc2ncccc2c1[N+](=O)[O-] : > 100 µM
